Data origin, for the record: ChEMBL document CHEMBL1146612

EXPERIMENTAL_TARGET: Histamine H1 receptor (Rattus norvegicus, UniProt P31390)
Sequence (P31390 whole entry): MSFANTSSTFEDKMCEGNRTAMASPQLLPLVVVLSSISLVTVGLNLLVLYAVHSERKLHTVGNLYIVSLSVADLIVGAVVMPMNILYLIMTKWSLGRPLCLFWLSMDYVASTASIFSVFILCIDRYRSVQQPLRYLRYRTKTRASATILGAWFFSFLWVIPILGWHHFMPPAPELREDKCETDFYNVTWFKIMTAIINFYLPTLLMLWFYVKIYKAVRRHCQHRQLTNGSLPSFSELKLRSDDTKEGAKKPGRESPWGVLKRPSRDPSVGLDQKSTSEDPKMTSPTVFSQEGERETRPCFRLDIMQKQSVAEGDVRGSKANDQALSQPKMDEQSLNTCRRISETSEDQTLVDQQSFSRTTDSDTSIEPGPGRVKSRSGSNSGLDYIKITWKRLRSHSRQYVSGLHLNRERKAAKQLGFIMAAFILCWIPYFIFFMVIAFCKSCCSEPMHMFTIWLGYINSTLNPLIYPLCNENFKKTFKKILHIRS
MEASURED_QUANTITY: Ki (nM)
Number only, in nM; omit the unit.

Request: Ki, test system Histamine H1 receptor (Rattus norvegicus, UniProt P31390), entry CN(CCCCCc1c[nH]cn1)CCC(c1ccc(Cl)cc1)c1ccccn1 (stereo unspecified)
6

====

# Histamine H3 receptor (Cavia porcellus): pKi values follow
# Sequence (Q9JI35 whole entry): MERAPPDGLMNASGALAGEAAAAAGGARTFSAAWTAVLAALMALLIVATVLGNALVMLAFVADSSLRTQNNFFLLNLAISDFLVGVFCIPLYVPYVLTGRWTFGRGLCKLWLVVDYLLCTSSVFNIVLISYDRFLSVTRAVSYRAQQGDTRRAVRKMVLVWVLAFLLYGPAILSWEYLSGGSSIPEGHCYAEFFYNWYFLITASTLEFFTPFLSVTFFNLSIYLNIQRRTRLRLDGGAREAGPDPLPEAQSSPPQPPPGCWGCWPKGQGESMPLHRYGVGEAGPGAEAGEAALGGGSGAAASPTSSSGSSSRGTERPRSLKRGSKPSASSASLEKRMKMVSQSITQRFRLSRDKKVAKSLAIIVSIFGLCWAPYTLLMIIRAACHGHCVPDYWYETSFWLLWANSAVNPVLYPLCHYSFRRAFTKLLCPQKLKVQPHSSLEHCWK
Quick note: pKi means taking -log10 of the concentration in moles per liter.

O=C(CC(c1ccccn1)c1ccccn1)NCCCCc1c[nH]cn1 | 9.00
c1ccc(C(CCNCCCCc2c[nH]cn2)c2ccccn2)nc1 | 8.40

Next compound, pKi to be filled in.
For the record O=C(NCCCCc1cnc[nH]1)NCCC(c1ccc(Cl)cc1)c1ccccn1 (stereo not drawn) , what value of pKi is listed for Histamine H3 receptor (Cavia porcellus)?
7.64
